- Tested on: MIA PaCa-2
- protocol: Growth inhibition of human MIA PaCa-2 cells incubated for 72 hrs by MTT assay
- Type: functional
Entries whose GI50 is below 4 µM take label 1; entries at or above 4 µM take label 0.

Study these solved cases before continuing.
{"structure_string": "CCCCc1ccc(S(=O)(=O)NCCCCCCNCc2ccc(Br)cc2)cc1", "experimental_target": "MIA PaCa-2", "assigned_class": "label 0"}
{"structure_string": "O=S(=O)(NCCCNCc1cccc(Cl)c1)c1cc(C(F)(F)F)cc(C(F)(F)F)c1", "experimental_target": "MIA PaCa-2", "assigned_class": "label 0"}
{"structure_string": "O=[N+]([O-])c1ccccc1S(=O)(=O)NCCCCCCNCc1ccc(Br)cc1", "experimental_target": "MIA PaCa-2", "assigned_class": "label 0"}
{"structure_string": "O=S(=O)(NCCNCc1ccc(-c2ccccc2)cc1)c1cc(C(F)(F)F)cc(C(F)(F)F)c1", "experimental_target": "MIA PaCa-2", "assigned_class": "label 1"}
{"structure_string": "O=S(=O)(NCCCCCCNCc1ccc(Br)cc1)c1cc(Cl)cc(Cl)c1", "experimental_target": "MIA PaCa-2", "assigned_class": "label 0"}

Ask: Lab note: confirm whether the reported GI50 for this compound is below 4 µM, equality not counting. compound: COc1ccc(CNCCNS(=O)(=O)c2cc(C(F)(F)F)cc(C(F)(F)F)c2)cc1OC
Reply: label 0

Ask: Would you mind doing CC(C)(C)c1ccc(S(=O)(=O)NCCCCCCNCc2ccc(Br)cc2)cc1 as well?
Reply: label 1

Ask: Would you mind doing O=S(=O)(NCCCCCCNCc1ccc(Br)cc1)c1ccc2ccsc2c1 as well?
Reply: label 0

Ask: And what about the compound O=S(=O)(NCCCNCc1cccc2ccccc12)c1cc(C(F)(F)F)cc(C(F)(F)F)c1 ?
Reply: label 1

Ask: Check O=S(=O)(NCCNCc1cccc2ccccc12)c1cc(C(F)(F)F)cc(C(F)(F)F)c1 too.
Reply: label 0

----------
- Test system: A2780
- protocol: Growth inhibition of human A2780 cells incubated for 72 hrs by MTT assay
- Assay type: functional
reported_property: GI50 (nM)
Give just the number in nM; leave the unit off.

{"molecule": "O=S(=O)(NCCCNCc1ccc(Br)cc1)c1cc(C(F)(F)F)cc(C(F)(F)F)c1", "experimental_target": "A2780", "value_measured": 2600}
{"molecule": "COc1cccc(CNCCCNS(=O)(=O)c2cc(C(F)(F)F)cc(C(F)(F)F)c2)c1", "experimental_target": "A2780", "value_measured": 1600}
{"molecule": "O=S(=O)(NCCCNCC1COc2ccccc2O1)c1cc(C(F)(F)F)cc(C(F)(F)F)c1 (centres undefined)", "experimental_target": "A2780", "value_measured": 1500}

# input for lookup
Ask: Please look up its GI50: O=S(=O)(NCCCCNCc1ccc(Br)cc1)c1cc(C(F)(F)F)cc(C(F)(F)F)c1
Reply: 2100

----------
The reader will find reported GI50 values listed item by item below.
- System: MIA PaCa-2
- protocol: Growth inhibition of human MIA PaCa-2 cells incubated for 72 hrs by MTT assay
- Assay type: functional
Field format: number, assumed µM, no unit text.

Field: example entries. Status: answers known.
{"structure_string": "O=S(=O)(NCCCCCCNCc1ccc(Br)cc1)c1c(Cl)cc(C(F)(F)F)cc1Cl", "GI50 (µM)": 5.67}
{"structure_string": "O=S(=O)(NCCCCCCNCc1ccc(Br)cc1)c1ccc(C(F)(F)F)cc1", "GI50 (µM)": 3.83}
{"structure_string": "COc1ccc(CNCCCNS(=O)(=O)c2cc(C(F)(F)F)cc(C(F)(F)F)c2)cc1", "GI50 (µM)": 2.5}
{"structure_string": "COc1ccc(S(=O)(=O)NCCCCCCNCc2ccc(Br)cc2)cc1", "GI50 (µM)": 13}

// moving on: another record for GI50
Ask: Endpoint output: GI50 of O=S(=O)(NCCCCCCNCc1ccc(Br)cc1)c1ccc2c(c1)OCC2 . Value?
Reply: 13

----------
- protocol: Growth inhibition of human MCF-10A cells incubated for 72 hrs by MTT assay
- Type: toxicity, cell-based
reported_property: GI50 at 72 h (µM)
Supply the numeric figure in µM, leaving out any unit text.

{"structure_string": "O=S(=O)(NCCCNCc1ccc(C(F)(F)F)cc1)c1cc(C(F)(F)F)cc(C(F)(F)F)c1", "GI50 at 72 h (µM)": 3.3}
{"structure_string": "O=S(=O)(NCCCNCc1ccc(-c2ccccc2)cc1)c1cc(C(F)(F)F)cc(C(F)(F)F)c1", "GI50 at 72 h (µM)": 2.8}
{"structure_string": "COc1ccccc1CNCCCNS(=O)(=O)c1cc(C(F)(F)F)cc(C(F)(F)F)c1", "GI50 at 72 h (µM)": 5.5}
{"structure_string": "O=S(=O)(NCCCNCc1ccc(Br)cc1)c1cc(C(F)(F)F)cc(C(F)(F)F)c1", "GI50 at 72 h (µM)": 3.1}

Now for another entry.
Ask: # lookup: GI50 at 72 h of CC(C)(C)c1ccc(CNCCNS(=O)(=O)c2cc(C(F)(F)F)cc(C(F)(F)F)c2)cc1
Reply: 14

----------
- Tested on: MIA PaCa-2
- protocol: Growth inhibition of human MIA PaCa-2 cells incubated for 72 hrs by MTT assay
- Assay type: functional
The label is Condition met for GI50 below 10 µM and Condition not met for GI50 equal to or exceeding 10 µM.

Below, 5 compounds whose answers are already recorded.
{"structure_string": "O=S(=O)(NCCCNCc1ccc(-c2ccccc2)cc1)c1cc(C(F)(F)F)cc(C(F)(F)F)c1", "assigned_class": "Condition met"}
{"structure_string": "O=S(=O)(NCCCNCc1ccc(Cl)c(Cl)c1)c1cc(C(F)(F)F)cc(C(F)(F)F)c1", "assigned_class": "Condition met"}
{"structure_string": "O=S(=O)(NCCCCCCNCc1ccc(Br)cc1)c1cccc(C(F)(F)F)c1", "assigned_class": "Condition met"}
{"structure_string": "Cc1ccc(C)c(S(=O)(=O)NCCCCCCNCc2ccc(Br)cc2)c1", "assigned_class": "Condition not met"}
{"structure_string": "O=S(=O)(NCCCCCCNCc1ccc(Br)cc1)c1c(Cl)cccc1Cl", "assigned_class": "Condition not met"}

Ask: Say whether its GI50 is strictly beneath 10 µM. Entry: O=S(=O)(NCCCCCCNCc1ccc(Br)cc1)c1ccc(Cl)cc1
Reply: Condition met

Ask: Can you handle CC(C)(C)c1ccc(CNCCNS(=O)(=O)c2cc(C(F)(F)F)cc(C(F)(F)F)c2)cc1 next?
Reply: Condition not met

Ask: Same question, Cc1ccc(S(=O)(=O)NCCCCCCNCc2ccc(Br)cc2)cc1 this time
Reply: Condition not met

Ask: Now consider O=S(=O)(NCCCNCc1ccccc1)c1cc(C(F)(F)F)cc(C(F)(F)F)c1 and answer again.
Reply: Condition not met

----------
- Test system: A2780
- protocol: Growth inhibition of human A2780 cells incubated for 72 hrs by MTT assay
- Assay type: functional
Classes by GI50: class 1: < 2 µM; class 2: ≥ 2 µM and < 10 µM; class 3: ≥ 10 µM

{"structure_string": "COc1ccc(CNCCNS(=O)(=O)c2cc(C(F)(F)F)cc(C(F)(F)F)c2)cc1OC", "assigned_class": "class 3"}
{"structure_string": "O=S(=O)(NCCCNCc1cccc(Cl)c1)c1cc(C(F)(F)F)cc(C(F)(F)F)c1", "assigned_class": "class 2"}
{"structure_string": "CN(CCCNS(=O)(=O)c1cc(C(F)(F)F)cc(C(F)(F)F)c1)Cc1ccccc1", "assigned_class": "class 3"}
{"structure_string": "O=S(=O)(NCCNCc1cccc2ccccc12)c1cc(C(F)(F)F)cc(C(F)(F)F)c1", "assigned_class": "class 3"}
{"structure_string": "COc1ccc(CNCCCNS(=O)(=O)c2cc(C(F)(F)F)cc(C(F)(F)F)c2)cc1", "assigned_class": "class 1"}
{"structure_string": "O=S(=O)(NCCCNCc1ccccc1)c1cc(C(F)(F)F)cc(C(F)(F)F)c1", "assigned_class": "class 2"}
{"structure_string": "O=S(=O)(NCCCNCc1ccc(-c2ccccc2)cc1)c1cc(C(F)(F)F)cc(C(F)(F)F)c1", "assigned_class": "class 2"}
{"structure_string": "O=S(=O)(NCCCNCc1ccc(Cl)c(Cl)c1)c1cc(C(F)(F)F)cc(C(F)(F)F)c1", "assigned_class": "class 1"}

# ---- query compound ----
Ask: Bin this entry: COc1ccc(CNCCCNS(=O)(=O)c2cc(C(F)(F)F)cc(C(F)(F)F)c2)cc1OC
Reply: class 2
